- assay: Inhibition of FLT3 ITD/D835V double mutant (unknown origin) expressed in mouse BaF3 cells assessed as antiproliferative activity incubated for 72 hrs by CCK8 assay
metric: IC50
Answer by giving the amount and then stating its unit.

[in] Which IC50 value is on record for Cc1c(NC(=O)CCN2CCCC2)c[nH]c1/C=C1\C(=O)Nc2ccc(F)cc21 ?
[out] 27 nM

----------
- assay: Inhibition of TEL-FLT3 D835V mutant (unknown origin) expressed in mouse BaF3 cells assessed as antiproliferative activity incubated for 72 hrs by CCK8 assay
metric: pIC50
Answers are plain numbers, as −log10 of the molar value.

[in] Which pIC50 value is on record for Cc1c(NC(=O)CCN2CCCC2)c[nH]c1/C=C1\C(=O)Nc2ccc(F)cc21 ?
[out] 7.52

Each recorded value in this set is attributed to BindingDB's records for doi:10.1021/acs.jmedchem.0c02247.
